Assay: Specific activity of purified CHI, absorbance decrease at 384 nm, homoeriodictyol chalcone; note: unit not given here
Format: biochemical
Conditions: purified CHI in 50 mM PBS, 100 μM substrate, 25° C.
Procedure: E. coli BL21 (DE3) cells containing one of the pET28b plasmids from Table 2 or Table 3 were used to inoculate 1 L LB medium at OD of 0.1. […] The activity of the respective purified enzyme was determined by measuring the absorbance decrease at 384 nm in the reaction mix (CHI in 50 mM PBS with 100 μM of either naringenin chalcone, hesperetin chalcone, eriodictyol chalcone, homoeriodictyol chalcone or 4-O-methyl butein at 25° C.).
Listing: Specific activity, Homoeriodctiol chalcone of selected molecules
No unit in the answer, please; the number alone is enough.

- MOLECULE: "CHIera Mut10: Chalcone isomerase variant 10 from Eubacterium ramulus, genetically engineered (protein, listed as Eubacterium ramulus) MADFKFEPMRSLIYVDCVSEDYRPKLQRWIYKVHIPDSISQFEPYVTKYAFYPSFPIPPQGDRFGYARMQLTEHHWLVSILDPRLEIKAIAETFPMDVLVWQGQIPAAAHTDAQIDSDGDAGDAARKSNNAEGNPFIFAFLPMWWEKDLKGKGRTIEDGANYRFNMTIGFPEGVDKAEGEKWLFEKVVPILQAAPECTRVLASAVKKDINGCVMDWVLEIWFENQSGWYKVMVDDMKALEKPSWAQQDAFPFLKPYHNVCSAAVADYTPSNNLANYRGYITMR"
  VAL: 17.9
- MOLECULE: "CHI8: Chalcone isomerase from Roseburia sp., access no. SCJ10619.1 (protein, listed as Roseburia sp.) RSLIYVDVAKEQYRVKLNHWLYAVHVPESISKFRPYVSQYAFYNALPVPPLGEQFGTVRMQLTEHYWQVNPMDVSMAVNVFTETFPTEVLIWQGNMPENAIALNYEGDEARSAKVENCNPFVFAFLPISWEEDLKGAGRTMADGPNYRWNFALHYPDGVSVETGDQWFYEKFVPAFLEIPEATRMVTSKIIKEINDCPMDRVVEIWFEGPDQWSAAMEKAKSIEPPEWAQEETFPYLKPYQNIMGVFVADNISSDNLNNHRGYITMR"
  VAL: 22.8

Pending molecule:
## Task Need Specific activity, Homoeriodctiol chalcone of CHIera Mut3: Chalcone isomerase variant 3 from Eubacterium ramulus, genetically engineered (protein, listed as Eubacterium ramulus) MADFKFEPMRSLIYVDCVSEDYRPKLQRWIYKVHIPDSISNFEPYVTKYAFYPSFPIPPQGDRFGYARMQLTEHHWLVSELDPRLEIKAIAETFPMDVLVWQGQIPAAAHTDAQIDSDGDAGRAAGKSNNAEGNPFIFAFLPMWWEKDLKGKGRTIEDGANYRFNMTIGFPEGVDKAEGEKWLFEKVVPILQAAPECTRVLASAVKKDINGCVMDWVLEIWFENQSGWYKVMVDDMKALEKPSWAQQDAFPFLKPYHNVCSAAVADYTPSNNLANYRGYITMR , thanks.
## Result 13.0
